Data credit: ChEMBL document CHEMBL1153358

Tested on: Candida tropicalis
Assay: Antifungal activity against Candida tropicalis ATCC 750
Assay type: functional
Reported MIC is given for each of the following compounds.
Could you give me the number in µg/mL? Just the number is fine.

The cases that follow already have their MIC on record.
Structure notation: C[C@@H](S[C@H]1CO[C@H](/C=C/C(=O)Nc2ccc(F)cc2)OC1)[C@](O)(Cn1cncn1)c1ccc(F)cc1F
Assayed target: Candida tropicalis
Unit string: µg/mL
Observed measurement: 0.125
//
Structure notation: C[C@@H](S[C@H]1CO[C@H](c2cccc(C(=O)Nc3ccc(C#N)cc3)c2)OC1)[C@](O)(Cn1cncn1)c1ccc(F)cc1F
Assayed target: Candida tropicalis
Unit string: µg/mL
Observed measurement: 1
//
Structure notation: C[C@@H](S[C@H]1CO[C@H](c2ccc(C(=O)Nc3ccc(C#N)c(C#N)c3)cc2)OC1)[C@](O)(Cn1cncn1)c1ccc(F)cc1F
Assayed target: Candida tropicalis
Unit string: µg/mL
Observed measurement: 0.031

Next compound, please.
[Q] Report MIC for OC(Cn1cncn1)(Cn1cncn1)c1ccc(F)cc1F please.
[A] 2

###

# key: entry, value: log10 of MIC
System: Cryptococcus neoformans
Assay: Antifungal activity against Cryptococcus neoformans TIMM 1855
Assay type: functional
Values are log10 of MIC in mg/L.

Study these solved cases before continuing.
Compound: C[C@@H](S[C@H]1CO[C@H](c2ccc(C(=O)Nc3ccc(Br)cc3)cc2)OC1)[C@](O)(Cn1cncn1)c1ccc(F)cc1F
log10 of MIC: -1.80
--
Compound: C[C@@H](S[C@H]1CO[C@H](c2ccc(C(=O)Nc3ccc(OCC(F)(F)C(F)F)cc3)cc2)OC1)[C@](O)(Cn1cncn1)c1ccc(F)cc1F
log10 of MIC: -1.20
--
Compound: C[C@@H](S[C@H]1CO[C@H](/C=C/C=C/c2ccc(C#N)cc2F)OC1)[C@](O)(Cn1cncn1)c1ccc(F)cc1F
log10 of MIC: -1.80

[Q] What log10 of MIC value was documented for this compound, C[C@@H](S[C@H]1CO[C@H](c2ccc(C(=O)Nc3ccc(SC(F)(F)F)cc3)cc2)OC1)[C@](O)(Cn1cncn1)c1ccc(F)cc1F ?
[A] -1.80

[Q] Record request: log10 of MIC value, item C[C@@H](S[C@H]1CO[C@H](c2ccc(C(=O)Nc3ccc(C#N)cc3F)cc2)OC1)[C@](O)(Cn1cncn1)c1ccc(F)cc1F
[A] -1.20

[Q] Which value of log10 of MIC has been reported for C[C@@H](S[C@H]1CO[C@H](c2ccc(C(=O)Nc3ccc(C#N)cc3)cc2)OC1)[C@](O)(Cn1cncn1)c1ccc(F)cc1F in the records?
[A] -1.51

###

Tested on: Candida tropicalis
Assay: Antifungal activity against Candida tropicalis ATCC 750
Assay type: functional
Assay metric: MIC

The following compounds have reported results that may help.
Structure notation: C[C@@H](S[C@H]1CO[C@H](c2ccc(C(=O)Nc3ccc(C#N)c(Cl)c3)cc2)OC1)[C@](O)(Cn1cncn1)c1ccc(F)cc1F
Assayed target: Candida tropicalis
MIC: 0.063 µg/mL
--
Structure notation: CC(=O)c1ccc(NC(=O)c2ccc([C@H]3OC[C@H](S[C@H](C)[C@](O)(Cn4cncn4)c4ccc(F)cc4F)CO3)cc2)cc1
Assayed target: Candida tropicalis
MIC: 0.125 µg/mL
--
Structure notation: C[C@@H](S[C@H]1CO[C@H](c2ccc(C(=O)Nc3ccc(Cl)cc3)cc2)OC1)[C@](O)(Cn1cncn1)c1ccc(F)cc1F
Assayed target: Candida tropicalis
MIC: 0.016 µg/mL
--
Structure notation: C[C@@H](S[C@H]1CO[C@H](c2ccc(C(=O)Nc3ccc(C#N)cc3)cc2F)OC1)[C@](O)(Cn1cncn1)c1ccc(F)cc1F
Assayed target: Candida tropicalis
MIC: ≤ 0.008 µg/mL
--
Structure notation: C[C@@H](S[C@H]1CO[C@H](c2ccc(C(=O)Nc3ccc(F)cc3)cc2)OC1)[C@](O)(Cn1cncn1)c1ccc(F)cc1F
Assayed target: Candida tropicalis
MIC: 0.016 µg/mL

[Q] May I ask what MIC has been recorded for C[C@@H](S[C@H]1CO[C@H](c2ccc(C(=O)Nc3ccc(SC(F)(F)F)cc3)cc2)OC1)[C@](O)(Cn1cncn1)c1ccc(F)cc1F ?
[A] 0.031 µg/mL

[Q] Field request: MIC | item: C[C@@H](S[C@H]1CO[C@H](c2ccc(C(=O)Nc3nccs3)cc2)OC1)[C@](O)(Cn1cncn1)c1ccc(F)cc1F
[A] 0.125 µg/mL
